molecular target: CDK7/CycH/MAT1 (Homo sapiens (Human)); test: Radiometric protein kinase assay (33PanQinase), Assay Condition A (thiol containing); settings: thiol containing (1.2 mM DTT), ATP 3.0 μM
pIC50: −log10 of the molar value.
attributeMeasured: pIC50

compound	attributeMeasured	valueMeasured
CCC(=O)Nc1ccc(C(=O)N2CC[C@@H](Nc3ncc4ccc(F)cc4n3)C2)cc1 [Example 54]	pIC50	5.00 to 6.00

Lab note: C=CC(=O)Nc1ccc(C(=O)N2CCC[C@@H](Nc3ncc4ccc(OC)cc4n3)C2)cc1 [Example 6] gave pIC50 of 4.00 to 4.52

Lab note: CN(C)C/C=C/C(=O)N1CCCc2cc(C(=O)N3CC[C@@H](Nc4ncc5ccccc5n4)C3)ccc21 [Example 89] gave pIC50 of 6.00 to 7.00

Lab note: CCC(=O)Nc1ccc(C(=O)N2CCC[C@@H](Nc3ncc4ccc(S(C)(=O)=O)cc4n3)C2)cc1 [Example 21] gave pIC50 of 4.00 to 4.52

Lab note: C=CC(=O)Nc1ccc(C(=O)N2CCC[C@@H](Nc3ncc4ccc(C(=O)O)cc4n3)C2)cc1 [Example 14] gave pIC50 of 4.52 to 5.00

Lab note: C=CC(=O)Nc1ccc(C(=O)N2CC[C@@H](Nc3ncc4ccc(C(=O)O)cc4n3)C2)cc1 [Example 38] gave pIC50 of 6.00 to 7.00

Lab note: C=C(CC)C(=O)Nc1ccc(C(=O)N2CC[C@@H](Nc3ncc4ccccc4n3)C2)cc1 [Example 94] gave pIC50 of 5.00 to 6.00

Lab note: C=CC(=O)Nc1ccc(C(=O)N2CC[C@@H](Nc3ncc4cccc(F)c4n3)C2)cc1 [Example 90] gave pIC50 of 5.00 to 6.00

====

molecular target: CDK7/CycH/MAT1 (Homo sapiens (Human)); assay: Radiometric protein kinase assay (33PanQinase), Assay Condition A (thiol containing); details: thiol containing (1.2 mM DTT), ATP 3.0 μM
Listing of entries alongside the reported IC50.

These recorded examples may help you get a feel for the data.
compound	IC50
C=CC(=O)Nc1ccc(C(=O)N2CC[C@@H](Nc3ncc4ccc(C)cc4n3)C2)cc1 [Example 32]	1 to 10 µM
C=CC(=O)N1CCOc2cc(C(=O)N3CC[C@@H](Nc4ncc5ccccc5n4)C3)ccc21 [Example 80]	0.1 to 1 µM
C=CC(=O)Nc1ccc(C(=O)N2CC[C@@H](Nc3ncc4cc(F)ccc4n3)C2)cc1C [Example 92]	1 to 10 µM
C=CC(=O)Nc1ccc(C(=O)N2CC[C@@H](Nc3ncc4ccc(C(=O)N(C)C)cc4n3)C2)cc1 [Example 41]	1 to 10 µM
CCC(=O)Nc1ccc(C(=O)N2CCC[C@@H](Nc3ncc4ccccc4n3)C2)cc1 [Example 17]	30 to 100 µM

Lab note: C=CC(=O)Nc1c(C)cc(C(=O)N2CC[C@@H](Nc3ncc4ccccc4n3)C2)cc1F [Example 75] gave IC50 of 10 to 30 µM

Lab note: CCC(=O)Nc1ccc(C(=O)N2CCC[C@@H](Nc3ncc4ccc(F)cc4n3)C2)cc1 [Example 23] gave IC50 of 30 to 100 µM

Lab note: C=CC(=O)Nc1ccc(C(=O)N2CC[C@@H](Nc3ncc4ccc(Cl)cc4n3)C2)cc1 [Example 36] gave IC50 of 1 to 10 µM

====

target: CDK7/CycH/MAT1 (Homo sapiens (Human), UniProt P50613); assay: Radiometric protein kinase assay (33PanQinase), Assay Condition A (thiol containing); details: thiol containing (1.2 mM DTT), ATP 3.0 μM
Sequence (P50613 whole entry): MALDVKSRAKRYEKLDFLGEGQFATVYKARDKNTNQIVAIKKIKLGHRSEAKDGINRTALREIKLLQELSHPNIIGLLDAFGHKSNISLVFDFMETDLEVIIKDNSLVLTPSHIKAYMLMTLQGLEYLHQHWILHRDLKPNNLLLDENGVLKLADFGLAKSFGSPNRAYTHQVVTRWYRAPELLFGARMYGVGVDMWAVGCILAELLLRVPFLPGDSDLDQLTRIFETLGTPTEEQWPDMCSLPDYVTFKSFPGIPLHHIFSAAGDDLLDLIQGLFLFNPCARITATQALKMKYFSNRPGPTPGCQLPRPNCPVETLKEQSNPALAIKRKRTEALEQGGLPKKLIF
Sequence (P51946 whole entry partner): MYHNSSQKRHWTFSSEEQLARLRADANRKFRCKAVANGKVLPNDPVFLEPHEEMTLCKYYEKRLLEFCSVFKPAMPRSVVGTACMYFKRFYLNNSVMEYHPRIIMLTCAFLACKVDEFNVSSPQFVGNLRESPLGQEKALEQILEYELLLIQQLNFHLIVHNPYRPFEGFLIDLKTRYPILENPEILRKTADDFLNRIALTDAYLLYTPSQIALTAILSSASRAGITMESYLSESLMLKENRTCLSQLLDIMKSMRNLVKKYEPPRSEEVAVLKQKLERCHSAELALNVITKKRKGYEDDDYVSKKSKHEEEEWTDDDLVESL
Sequence (P51948 whole entry partner): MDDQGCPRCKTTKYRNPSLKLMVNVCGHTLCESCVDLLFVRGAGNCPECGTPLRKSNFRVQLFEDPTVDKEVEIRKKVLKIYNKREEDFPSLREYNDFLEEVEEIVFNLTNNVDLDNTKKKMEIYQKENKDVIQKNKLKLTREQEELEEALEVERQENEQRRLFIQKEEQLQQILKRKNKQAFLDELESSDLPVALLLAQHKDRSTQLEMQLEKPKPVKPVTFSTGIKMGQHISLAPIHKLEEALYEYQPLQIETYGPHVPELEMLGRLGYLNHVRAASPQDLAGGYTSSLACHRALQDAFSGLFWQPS
pIC50: −log10 of the molar value.
attributeMeasured: pIC50

compound	valueMeasured
CCC(=O)Nc1ccc(C(=O)N2CCC[C@@H](Nc3ncc4ccc(=O)n(C(C)C)c4n3)C2)cc1	4.00 to 4.52

Readout pIC50 for `CCC(=O)Nc1ccc(C(=O)N2CCC[C@@H](Nc3ncc4cc(Cl)ccc4n3)C2)cc1` , test system CDK7/CycH/MAT1 (Homo sapiens (Human), UniProt P50613), was 4.00 to 4.52

Readout pIC50 for `C=CC(=O)Nc1ccc(C(=O)N2CCC[C@@H](Nc3ncc4ccc(=O)[nH]c4n3)C2)cc1` , test system CDK7/CycH/MAT1 (Homo sapiens (Human), UniProt P50613), was 4.00 to 4.52

Readout pIC50 for `CN(C)C/C=C/C(=O)Nc1ccc(C(=O)N2CC[C@@H](Nc3ncc4ccccc4n3)C2)cc1Cl` , test system CDK7/CycH/MAT1 (Homo sapiens (Human), UniProt P50613), was 6.00 to 7.00

Readout pIC50 for `C=CC(=O)Nc1ccc(C(=O)N2CCC[C@@H](Nc3ncc4cc(Cl)ccc4n3)C2)cc1` , test system CDK7/CycH/MAT1 (Homo sapiens (Human), UniProt P50613), was 4.00 to 4.52

Readout pIC50 for `C=CC(=O)Nc1ccc(C(=O)N2CC[C@@H](Nc3ncc4cc(Cl)ccc4n3)C2)cc1` , test system CDK7/CycH/MAT1 (Homo sapiens (Human), UniProt P50613), was 5.00 to 6.00

Readout pIC50 for C=CC(=O)Nc1ccc(C(=O)N2CC[C@@H](Nc3ncc4ccc(C(=O)NC)cc4n3)C2)cc1 [Example 58] , test system CDK7/CycH/MAT1 (Homo sapiens (Human), UniProt P50613), was 6.00 to 7.00

Readout pIC50 for `CCC(=O)Nc1ccc(C(=O)N2CC[C@@H](Nc3ncc4ccc(C(=O)N(C)C)cc4n3)C2)cc1` , test system CDK7/CycH/MAT1 (Homo sapiens (Human), UniProt P50613), was 6.00 to 7.00

Readout pIC50 for `C=CC(=O)Nc1ccc(C(=O)N2CC[C@@H](Nc3ncc4ccc(=O)[nH]c4n3)C2)cc1` , test system CDK7/CycH/MAT1 (Homo sapiens (Human), UniProt P50613), was 5.00 to 6.00

Readout pIC50 for `CCC(=O)Nc1ccc(C(=O)N2CC[C@@H](Nc3ncc4cc(F)ccc4n3)C2)cc1` , test system CDK7/CycH/MAT1 (Homo sapiens (Human), UniProt P50613), was 5.00 to 6.00

Readout pIC50 for `CN(C)C/C=C/C(=O)Nc1ccc(C(=O)N2CCC[C@@H](Nc3ncc4ccccc4n3)C2)cc1` , test system CDK7/CycH/MAT1 (Homo sapiens (Human), UniProt P50613), was 4.00 to 4.52

====

target: CDK12 wt/CycK (Homo sapiens (Human), UniProt Q9NYV4); test: Radiometric protein kinase assay (33PanQinase), Assay Condition A (thiol containing); conditions: thiol containing (1.2 mM DTT), ATP 0.3 μM
Sequence (Q9NYV4 whole entry): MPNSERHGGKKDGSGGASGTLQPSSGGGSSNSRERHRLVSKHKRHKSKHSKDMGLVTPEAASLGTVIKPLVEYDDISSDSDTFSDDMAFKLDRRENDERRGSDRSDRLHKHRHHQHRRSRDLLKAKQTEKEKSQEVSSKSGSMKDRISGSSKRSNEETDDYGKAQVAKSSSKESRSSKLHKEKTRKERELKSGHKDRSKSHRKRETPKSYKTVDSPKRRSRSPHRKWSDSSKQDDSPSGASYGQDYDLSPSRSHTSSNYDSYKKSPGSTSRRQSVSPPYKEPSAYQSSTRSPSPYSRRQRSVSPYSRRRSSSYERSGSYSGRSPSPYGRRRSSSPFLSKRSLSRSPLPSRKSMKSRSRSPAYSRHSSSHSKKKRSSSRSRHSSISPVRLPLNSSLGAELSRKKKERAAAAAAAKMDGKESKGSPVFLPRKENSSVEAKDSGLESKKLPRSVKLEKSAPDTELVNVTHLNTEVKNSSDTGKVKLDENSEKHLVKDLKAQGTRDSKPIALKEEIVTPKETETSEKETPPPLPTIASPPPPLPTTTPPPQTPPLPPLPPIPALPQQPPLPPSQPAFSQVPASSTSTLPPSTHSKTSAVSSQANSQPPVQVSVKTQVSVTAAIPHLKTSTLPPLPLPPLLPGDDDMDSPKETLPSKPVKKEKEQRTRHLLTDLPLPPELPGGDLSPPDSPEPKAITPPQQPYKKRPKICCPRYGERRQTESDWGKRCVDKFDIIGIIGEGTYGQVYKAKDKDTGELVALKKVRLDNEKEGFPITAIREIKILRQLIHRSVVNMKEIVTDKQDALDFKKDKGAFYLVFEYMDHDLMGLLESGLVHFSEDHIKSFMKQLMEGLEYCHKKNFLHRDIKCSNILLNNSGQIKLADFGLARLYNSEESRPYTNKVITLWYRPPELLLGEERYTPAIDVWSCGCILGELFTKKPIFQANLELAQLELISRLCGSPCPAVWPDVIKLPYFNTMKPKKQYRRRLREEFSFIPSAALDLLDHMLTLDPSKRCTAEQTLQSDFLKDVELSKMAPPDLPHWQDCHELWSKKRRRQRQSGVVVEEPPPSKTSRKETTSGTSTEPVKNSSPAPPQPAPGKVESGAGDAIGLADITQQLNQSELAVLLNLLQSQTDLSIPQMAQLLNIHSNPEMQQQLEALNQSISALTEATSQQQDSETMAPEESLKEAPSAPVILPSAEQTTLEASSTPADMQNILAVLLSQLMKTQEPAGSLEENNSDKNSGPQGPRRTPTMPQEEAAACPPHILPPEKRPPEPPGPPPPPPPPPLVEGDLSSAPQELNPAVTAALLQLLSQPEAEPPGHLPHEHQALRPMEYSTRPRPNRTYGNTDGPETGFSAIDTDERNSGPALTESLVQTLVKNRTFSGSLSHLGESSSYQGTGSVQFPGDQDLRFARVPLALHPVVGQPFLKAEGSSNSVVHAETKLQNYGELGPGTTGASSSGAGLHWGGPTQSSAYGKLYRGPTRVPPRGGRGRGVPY
Sequence (O75909 whole entry partner): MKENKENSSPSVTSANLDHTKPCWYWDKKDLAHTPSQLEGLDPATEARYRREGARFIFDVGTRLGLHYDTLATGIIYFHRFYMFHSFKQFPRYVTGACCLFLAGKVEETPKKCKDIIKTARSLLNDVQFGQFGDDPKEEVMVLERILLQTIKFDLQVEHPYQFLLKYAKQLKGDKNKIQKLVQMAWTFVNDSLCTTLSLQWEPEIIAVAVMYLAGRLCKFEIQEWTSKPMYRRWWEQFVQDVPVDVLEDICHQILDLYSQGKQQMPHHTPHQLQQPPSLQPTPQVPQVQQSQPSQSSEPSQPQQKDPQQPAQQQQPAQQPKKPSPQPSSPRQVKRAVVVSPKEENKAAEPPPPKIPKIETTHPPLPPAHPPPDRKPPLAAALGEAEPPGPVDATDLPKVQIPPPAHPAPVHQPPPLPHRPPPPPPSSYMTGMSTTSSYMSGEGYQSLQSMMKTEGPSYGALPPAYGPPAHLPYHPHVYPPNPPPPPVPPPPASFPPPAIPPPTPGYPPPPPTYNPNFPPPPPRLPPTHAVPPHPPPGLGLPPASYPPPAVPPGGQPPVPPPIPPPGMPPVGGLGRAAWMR
Listing of entries alongside the reported IC50.

These recorded examples may help you get a feel for the data.
compound	valueMeasured
CN(C)C/C=C/C(=O)N1CCOc2cc(C(=O)N3CC[C@@H](Nc4ncc5ccccc5n4)C3)ccc21 [Example 84]	100 to 1000 nM
CCC(=O)Nc1ccc(C(=O)N2CCC[C@@H](Nc3ncc4ccc(Cl)cc4n3)C2)cc1 [Example 22]	30000 to 100000 nM
C=CC(=O)Nc1ccc(C(=O)N2CCC[C@@H](Nc3ncc4ccc(=O)n(C(C)C)c4n3)C2)cc1 [Example 15]	1000 to 10000 nM

Lab note: C=CC(=O)Nc1ccc(C(=O)N2CC[C@@H](Nc3ncc4ccccc4n3)C2)cc1Cl [Example 88] gave IC50 of ≤ 100 nM

====

target: CDK2/CycA2 (Homo sapiens (Human)); test: Radiometric protein kinase assay (33PanQinase), Assay Condition A (thiol containing); settings: thiol containing (1.2 mM DTT), ATP 0.3 μM
pIC50: −log10 of the molar value.
attributeMeasured: pIC50

smilesText	systemUnderTest	pIC50
CCC(=O)Nc1ccc(C(=O)N2CC[C@@H](Nc3ncc4ccc(Cl)cc4n3)C2)cc1	CDK2/CycA2 (Homo sapiens (Human))	6.00 to 7.00
C=CC(=O)Nc1ccc(C(=O)N2CCC[C@@H](Nc3ncc4ccc(S(C)(=O)=O)cc4n3)C2)cc1	CDK2/CycA2 (Homo sapiens (Human))	4.52 to 5.00
CN(C)C/C=C/C(=O)Nc1ccc(C(=O)N2CC[C@@H](Nc3ncc4ccccc4n3)C2)cc1Cl	CDK2/CycA2 (Homo sapiens (Human))	5.00 to 6.00
C#CC(=O)Nc1ccc(C(=O)N2CC[C@@H](Nc3ncc4ccccc4n3)C2)cc1	CDK2/CycA2 (Homo sapiens (Human))	6.00 to 7.00

Lab note: `C=C(CC)C(=O)Nc1ccc(C(=O)N2CC[C@@H](Nc3ncc4ccccc4n3)C2)cc1` gave pIC50 of 5.00 to 6.00

Lab note: `C=CC(=O)Nc1ccc(C(=O)N2CCC[C@@H](Nc3cc4ccccc4cn3)C2)cc1` gave pIC50 of 4.00 to 4.52

Lab note: `C=CC(=O)Nc1ccc(C(=O)N2CC[C@@H](Nc3ncc4c(F)cccc4n3)C2)cc1` gave pIC50 of 5.00 to 6.00

Lab note: `CC#CC(=O)Nc1ccc(C(=O)N2CC[C@@H](Nc3ncc4ccccc4n3)C2)cc1` gave pIC50 of 6.00 to 7.00
